Reference source: ChEMBL document CHEMBL1146011

Recorded below: Ki, system 5-hydroxytryptamine receptor 2C (Homo sapiens, UniProt P28335).
experimentalReadout: Ki (nM)

Below, each entry is followed by its recorded Ki result.
API: value(readout= Ki, system= 5-hydroxytryptamine receptor 2C (Homo sapiens, UniProt P28335), query= COc1ccc(N2CC=C(c3ccc(Cl)cc3)C2=O)cc1OCCN1CCCCC1 )
7.94

API: value(readout= Ki, system= 5-hydroxytryptamine receptor 2C (Homo sapiens, UniProt P28335), query= O=C1C(c2ccc(Cl)c(Cl)c2)=CCN1c1ccc(N2CCCC2)c(OCCN2CCCCC2)c1 )
200

API: value(readout= Ki, system= 5-hydroxytryptamine receptor 2C (Homo sapiens, UniProt P28335), query= COc1ccc(N2CC=C(c3ccc(OC)c(OCCN4CCCCC4)c3)C2=O)cc1F )
6.31

API: value(readout= Ki, system= 5-hydroxytryptamine receptor 2C (Homo sapiens, UniProt P28335), query= COc1ccc(N2CC=C(c3cccc(F)c3)C2=O)cc1OCCN1CCCCC1 )
0.794

API: value(readout= Ki, system= 5-hydroxytryptamine receptor 2C (Homo sapiens, UniProt P28335), query= COc1ccc(N2CCC(c3cccc(F)c3)C2=O)cc1OCCN1CCCCC1 (centres undefined) )
100

I = COc1ccc(N2CCC(c3ccc(F)cc3)C2=O)cc1OCCN1CCCCC1 (centres undefined)
II = COc1ccc(C2CCN(c3ccc(Cl)c(Cl)c3)C2=O)cc1OCCN1CCCCC1 (centres undefined)
III = O=C1C(c2ccc(Cl)c(Cl)c2)CCN1c1ccc(OC(F)(F)F)c(OCCN2CCCCC2)c1 (centres undefined)
IV = COc1ccc(N2CC=C(c3ccc(Cl)cc3)C2=O)cc1OCCN1CCC(C)CC1
Number of compounds to sort: 4. Sort criterion: Ki, ascending. Please write the labels in the order that was asked for.
IV, II, I, III
(IV: 6.31 nM, II: 10 nM, I: 100 nM, III: 794 nM)

###

Recorded below: pKi, system UniProtKB P41595.
Sequence (P41595 whole entry): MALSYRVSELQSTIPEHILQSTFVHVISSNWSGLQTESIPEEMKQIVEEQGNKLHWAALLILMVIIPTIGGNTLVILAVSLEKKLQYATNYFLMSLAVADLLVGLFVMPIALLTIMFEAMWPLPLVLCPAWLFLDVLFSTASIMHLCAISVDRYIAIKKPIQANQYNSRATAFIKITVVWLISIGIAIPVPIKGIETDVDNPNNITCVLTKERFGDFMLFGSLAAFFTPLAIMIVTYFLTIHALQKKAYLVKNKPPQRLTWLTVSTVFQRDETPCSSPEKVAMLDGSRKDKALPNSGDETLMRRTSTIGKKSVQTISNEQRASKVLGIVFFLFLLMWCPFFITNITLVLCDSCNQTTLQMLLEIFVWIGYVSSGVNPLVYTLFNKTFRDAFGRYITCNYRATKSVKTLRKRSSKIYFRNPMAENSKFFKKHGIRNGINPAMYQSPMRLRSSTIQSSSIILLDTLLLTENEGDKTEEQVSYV
pKi: −log10 of the molar value.

Below, each entry is followed by its recorded pKi result.
API: value(readout= pKi, system= UniProtKB P41595, query= COc1ccc(C2=C(C)CN(c3ccc(Cl)cc3)C2=O)cc1OCCN1CCCCC1 )
6.30

API: value(readout= pKi, system= UniProtKB P41595, query= COc1ccc(N2CCC(c3ccc(Cl)c(Cl)c3)C2=O)cc1OCCN1CCC(C)(C)CC1 (stereo not drawn) )
< 6.00

API: value(readout= pKi, system= UniProtKB P41595, query= O=C1C(c2ccc(Cl)c(Cl)c2)=CCN1c1ccc(Cl)c(OCCN2CCCCC2)c1 )
< 5.80

API: value(readout= pKi, system= UniProtKB P41595, query= COc1ccc(N2CC=C(c3ccc(Cl)c(Cl)c3)C2=O)cc1OCCN1CCC(F)(F)CC1 )
< 5.30

API: value(readout= pKi, system= UniProtKB P41595, query= COc1ccc(N2CC=C(c3ccc(Cl)c(Cl)c3)C2=O)cc1OCCN1CCOCC1 )
< 5.80

API: value(readout= pKi, system= UniProtKB P41595, query= COc1ccc(N2CC=C(c3ccc(Cl)c(Cl)c3)C2=O)cc1OCCN1CCCCC1 )
6.20

Could you now consider this next molecule?
API: value(readout= pKi, system= UniProtKB P41595, query= COc1ccc(N2CC=C(c3ccc(Cl)c(Cl)c3)C2=O)cc1OCCN1CCCC1 )
< 5.80
